Read-out: Vascular cell adhesion molecule 1 (VCAM1), VCAM1 (gene 7412)
Test: BSK_CASM3C_VCAM1: BioMAP Diversity Plus: CASM3C Assay for Vascular cell adhesion molecule 1 (VCAM1) Biomarker Activity (AID 2283055);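 further: VCAM-1 protein level quantified by ELISA on the cells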
Conditions: primary human coronary artery smooth muscle cells; actives raise or lower the signal
The source made the active and inactive calls. How the source made its calls: active means hit-call score of the fitted dose curve at least 0.9, where 1 is the maximum; inactive means score below 0.9.
Labels: true (1) for active, false (0) for inactive

| mol.smiles | assigned.class |
| --- | --- |
| Cc1cc(SC2=C(O)C[C@@](CCc3ccc(N)cc3)(C(C)C)OC2=O)c(C(C)(C)C)cc1CO | false (0) |
| O=C(O)CC(O)(CC(=O)O)C(=O)O | false (0) |
| O=NO | false (0) |
| O=C(Oc1ccccc1)c1cccc(C(=O)Oc2ccccc2)c1 | false (0) |
| COC(=O)[C@H]1[C@H]2C[C@@H]3c4[nH]c5cc(OC)ccc5c4CCN3C[C@H]2C[C@@H](OC(=O)c2cc(OC)c(OC)c(OC)c2)[C@@H]1OC | false (0) |
| CCCCCCCCCC[N+](C)(C)[O-] | false (0) |
| COC(=O)CCCC(=O)OC | false (0) |
| O=C1c2c(O)cccc2Cc2cccc(O)c21 | false (0) |
| CN(C)C(=O)NC1(c2ccccc2)CCN(CCC[C@]2(c3ccc(Cl)c(Cl)c3)CCCN(C(=O)c3ccccc3)C2)CC1 | false (0) |
| CC(C)OC(=O)C(C)(C)Oc1ccc(C(=O)c2ccc(Cl)cc2)cc1 | true (1) |
| O=C1O[C@H]([C@H](O)CO)C(O)=C1O | false (0) |
| Oc1ccc(O)cc1 | true (1) |
| CC(=O)O | false (0) |
| CN(C)CCCN(C)CCCN(C)C | false (0) |
| CC(C)c1cccc(C(C)C)c1 | false (0) |
| O=C(O)CN(CC(=O)O)CC(=O)O | false (0) |
| CS(=O)(=O)c1ccc([C@@H](C[C@H]2CCC(=O)C2)C(=O)Nc2cnccn2)cc1Cl | false (0) |
| CC1=C(C)S(=O)(=O)CCS1(=O)=O | false (0) |
| CCCCCCCCCCCCCCCCO | false (0) |
| Cc1cc(Cc2ccc(N)c(C)c2)ccc1N | false (0) |
| NC=O | false (0) |
| Nc1nc(Cl)nc2c1ncn2[C@H]1C[C@H](O)[C@@H](CO)O1 | false (0) |
| O=C1OC(c2ccc(O)cc2)(c2ccc(O)cc2)c2ccccc21 | false (0) |
| N[C@@H](Cc1c[nH]c2ccccc12)C(=O)O | false (0) |
| O=C1CCCCC1 | false (0) |
| O=C(O)c1[nH]n(-c2ccc(S(=O)(=O)O)cc2)c(=O)c1N=Nc1ccc(S(=O)(=O)O)cc1 | false (0) |
